- assayedSystem: R343A hNCRD (Homo sapiens, UniProt P35247, R363A)
- Sequence (P35247 223-375 R363A limits assumed): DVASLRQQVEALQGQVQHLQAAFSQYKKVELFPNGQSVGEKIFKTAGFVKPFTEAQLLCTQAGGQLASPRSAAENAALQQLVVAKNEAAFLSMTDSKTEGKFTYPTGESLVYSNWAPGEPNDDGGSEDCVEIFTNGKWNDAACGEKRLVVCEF
- assayExplanation: Mannan competition assay, R343A
- testSettings: read-out: I50 for inhibition of binding to mannan, one experiment
parameter: pIC50
Reminder that pIC50 means the negative base-10 logarithm of the concentration expressed in mol/L.

Form field: pIC50 recorded for OC[C@H]1O[C@H](O[C@@H]2C(O)O[C@H](CO)[C@@H](O)[C@@H]2O)[C@@H](O)[C@@H](O)[C@@H]1O (stereo partly drawn) [alpha1–2 DM, alpha1–2 linked dimannose] with R343A hNCRD (Homo sapiens, UniProt P35247, R363A) (enter value)
3.44
